Tested on: HEK-Blue IL-6
Experiment: Inhibition of IL-6/JAK/STAT3 signalling pathway in HEK-Blue IL-6 cells at 10 uM incubated for 16 hrs by QUANTI-blue assay relative to control
Type: cell-based
Conditions: Homo sapiens
MEASUREMENT_TYPE: inhibition (%)
Just the number in %, nothing appended.

Reference set (5 entries):
• CC(C)Cn1c(-c2ccc(F)cc2)nc2cc(Nc3nnc(-c4ccccc4)s3)c(N3CCN(C)CC3)cc21 = 77.4
• CCCn1c(-c2ccc(F)cc2)nc2cc(Nc3nnc(-c4cccc(F)c4)s3)c(N3CCN(C)CC3)cc21 = 85.3
• CN1CCN(c2cc3c(cc2Nc2nnc(-c4ccccc4)s2)nc(-c2ccc(Cl)cc2)n3C2CC2)CC1 = 75.8
• CN1CCN(c2cc3c(cc2Nc2nnc(-c4ccc(C(F)(F)F)cc4)s2)nc(-c2ccc(F)cc2)n3C2CC2)CC1 = 101
• CN1CCN(c2cc3c(cc2Nc2nnc(-c4ccccc4)s2)nc(-c2ccc(F)cc2)n3C2CCC2)CC1 = 64.7

Query string: Recorded inhibition for "CN1CCN(c2cc3c(cc2Nc2nnc(-c4cccnc4)s2)nc(-c2ccc(F)cc2)n3C2CC2)CC1" with HEK-Blue IL-6, please?
Result string: -0.36

Query string: Notebook entry, HEK-Blue IL-6 assay: inhibition of "COc1cc(-c2nnc(Nc3cc4nc(-c5ccc(F)cc5)n(C5CC5)c4cc3N3CCN(C)CC3)s2)cc(OC)c1OC" = ?
Result string: 95.7

Query string: Give recorded inhibition with HEK-Blue IL-6 for the following compound: "CCCn1c(-c2cccc(F)c2)nc2cc(Nc3nnc(-c4cccc(C(F)(F)F)c4)s3)c(F)cc21"
Result string: 20.2

====

Assay: Tmax in ICR mouse at 50 mg/kg, po measured upto 96 hrs by HPLC-MS/MS analysis
Format: ADME, organism-based
Settings: in vivo
MEASUREMENT_TYPE: Tmax (h)
Numeric answer only, unit h assumed.

Query string: For the compound "CN1CCN(c2cc3c(cc2Nc2nnc(-c4ccc(C(F)(F)F)cc4)s2)nc(-c2ccc(F)cc2)n3C2CC2)CC1" , what Tmax is on record?
Result string: 4.67

====

Test: MRT (0 to infinity) in ICR mouse at 5 mg/kg, iv measured upto 96 hrs by HPLC-MS/MS analysis
Assay type: ADME, organism-based
Details: in vivo
MEASUREMENT_TYPE: MRT inf

Query string: // returns reported MRT inf for input "CN1CCN(c2cc3c(cc2Nc2nnc(-c4ccc(C(F)(F)F)cc4)s2)nc(-c2ccc(F)cc2)n3C2CC2)CC1"
Result string: 15.3 h

====

Assay: Clearance in ICR mouse at 50 mg/kg, po measured upto 96 hrs by HPLC-MS/MS analysis
Assay type: ADME, organism-based
Conditions: in vivo
MEASUREMENT_TYPE: CL/F (mL/min/kg)
Numbers only here, please. The scale is mL/min/kg.

Query string: Can you share its CL/F? I mean this molecule: "CN1CCN(c2cc3c(cc2Nc2nnc(-c4ccc(C(F)(F)F)cc4)s2)nc(-c2ccc(F)cc2)n3C2CC2)CC1"
Result string: 46.8

====

Assay: Drug concentration in ICR mouse plasma at 5 mg/kg, iv measured at 2 mins
Assay type: ADME, organism-based
MEASUREMENT_TYPE: concentration at 2 min
Returns: string containing the number followed by the unit.

Query string: Item under review: "CN1CCN(c2cc3c(cc2Nc2nnc(-c4ccc(C(F)(F)F)cc4)s2)nc(-c2ccc(F)cc2)n3C2CC2)CC1" . Reported concentration at 2 min?
Result string: 0.549 µg/mL

====

Experiment: AUC (0 to infinity) in ICR mouse at 5 mg/kg, iv measured upto 96 hrs by HPLC-MS/MS analysis
Type: ADME, organism-based
Set-up: dose 5 mg/kg, time < 96 hrs, route iv
Details: in vivo
MEASUREMENT_TYPE: AUC(0-inf)

Query string: Which AUC(0-inf) value is on record for "CN1CCN(c2cc3c(cc2Nc2nnc(-c4ccc(C(F)(F)F)cc4)s2)nc(-c2ccc(F)cc2)n3C2CC2)CC1" ?
Result string: 3450 ng·h/mL

====

Some molecules, each annotated with its measured microsomal CLint.
Assay: Metabolic stability in mouse liver microsomes assessed as intrinsic clearance in presence of NADPH/UDPGA
Type: ADME, Microsome
Settings: read-out: CLH
Answer format: numeric, µL/min/mg implied, no suffix.

• CN1CCN(c2cc3c(cc2Nc2nnc(-c4ccc(C(F)(F)F)cc4)s2)nc(-c2ccc(F)cc2)n3C2CC2)CC1 = 3.68

Now examine the next entry.
Query string: Would you kindly share the measured microsomal CLint for O=c1ccc2ccc(O)cc2o1 [UMBELLIFERONE] ?
Result string: 902

====

Experiment: Volume of distribution at steady state in ICR mouse at 5 mg/kg, iv measured upto 96 hrs by HPLC-MS/MS analysis
Assay type: ADME, organism-based
Details: in vivo, read-out: Vdss
MEASUREMENT_TYPE: Vd (L/kg)
Supply the numeric figure in L/kg, leaving out any unit text.

Query string: Which Vd value belongs to "CN1CCN(c2cc3c(cc2Nc2nnc(-c4ccc(C(F)(F)F)cc4)s2)nc(-c2ccc(F)cc2)n3C2CC2)CC1" ?
Result string: 19

====

Assay: Inhibition of IL-6/JAK/STAT3 signalling pathway in HEK-Blue IL-6 cells incubated for 16 hrs by QUANTI-blue assay
Format: cell-based
Details: Homo sapiens, HEK-Blue IL-6, 16 h
Dear colleague, classification is by IC50, with ranges listed here: lo (below 3 µM), med (3 µM to below 4 µM), hi (4 µM or more)

Query string: Category lookup for the compound "CCCn1c(-c2ccc(F)cc2)nc2cc(Nc3nnc(-c4ccc(C(F)(F)F)cc4)s3)c(N3CCN(C)CC3)cc21"
Result string: med

Query string: Kindly state the category for this compound: "CC(C)n1c(-c2ccc(F)cc2)nc2cc(Nc3nnc(-c4ccccc4)s3)c(N3CCN(C)CC3)cc21"
Result string: med

Query string: Which bin should I file "Fc1ccc(-c2nc3cc(Nc4nnc(-c5ccccc5)s4)c(N4CCN(c5ccccc5)CC4)cc3n2C2CC2)cc1" under?
Result string: hi

Query string: In plain terms, what class is "CCCn1c(-c2cccc(F)c2)nc2cc(Nc3nnc(-c4ccc(C(F)(F)F)cc4)s3)c(F)cc21" ?
Result string: hi

Query string: Please classify: "COCCn1c(-c2ccc(F)cc2)nc2cc(Nc3nnc(-c4ccccc4)s3)c(N3CCN(C)CC3)cc21"
Result string: hi

Query string: Given "CN1CCN(c2cc3c(cc2Nc2nnc(-c4ccccc4)s2)nc(-c2cccc(F)c2)n3C2CC2)CC1" , name the class its IC50 places it in.
Result string: hi

Query string: Band for "CCOc1cc2c(cc1Nc1nnc(-c3cccc(C#N)c3)s1)nc(-c1ccc(F)cc1)n2C1CC1" ?
Result string: lo

Query string: Which class holds "Fc1ccc(Oc2cc3c(cc2Nc2nnc(-c4cccc(C(F)(F)F)c4)s2)nc(-c2ccc(F)cc2)n3C2CC2)cc1" ?
Result string: hi

Query string: Each compound maps to one class by IC50. Which class for "CN(C)CCn1c(-c2ccc(F)cc2)nc2cc(Nc3nnc(-c4ccccc4)s3)c(N3CCN(C)CC3)cc21" ?
Result string: hi

Query string: Bin this entry: "CCCn1c(-c2ccc(F)cc2)nc2cc(Nc3nnc(-c4cc(OC)c(OC)c(OC)c4)s3)c(N3CCN(C)CC3)cc21"
Result string: lo

Query string: Lab note: sort "CC(C)(C)c1ccc(-c2nnc(Nc3cc4nc(-c5ccc(F)cc5)n(C5CC5)c4cc3F)s2)cc1" into the matching IC50 band.
Result string: hi

Query string: Sort into band: "CCCn1c(-c2ccc(F)cc2)nc2cc(Nc3nnc(-c4cccc(C(F)(F)F)c4)s3)c(N3CCN(C)CC3)cc21"
Result string: hi

Query string: Assign a category based on measured IC50 for "CN1CCN(c2cc3c(cc2Nc2nnc(-c4ccccc4)s2)nc(-c2cccnc2)n3C2CC2)CC1" and give only the class name.
Result string: hi

Query string: Returns: class label. Input: "Fc1ccc(-c2nc3cc(Nc4nnc(-c5ccc(C(F)(F)F)cc5)s4)c(F)cc3n2C2CC2)cc1"
Result string: hi

Query string: Could you tell me which band "Fc1cccc(-c2nc3cc(Nc4nnc(-c5cccc(C(F)(F)F)c5)s4)c(F)cc3n2C2CC2)c1" belongs to?
Result string: lo

Query string: # bin lookup: classify "Fc1ccc(-c2nc3cc(Nc4nnc(-c5cccc(Cl)c5)s4)c(F)cc3n2C2CC2)cc1" by its IC50
Result string: med

====

Test: MRT (0 to t) in ICR mouse at 50 mg/kg, po measured upto 96 hrs by HPLC-MS/MS analysis
Format: ADME, organism-based
Settings: in vivo
MEASUREMENT_TYPE: MRT last at 96 h
For clarity, give the value followed by its unit.

Query string: Given the entry "CN1CCN(c2cc3c(cc2Nc2nnc(-c4ccc(C(F)(F)F)cc4)s2)nc(-c2ccc(F)cc2)n3C2CC2)CC1" , report its measured MRT last at 96 h.
Result string: 17.1 h
